Catalogue of sequences with associated protein stability index
- PROTOCOL SUMMARY: protein stability index of a GFP-peptide fusion (yeast GPS) (PSI 1-4); higher = more stable; sorted into four equal gates, so the index is relative within each strain
- EXPERIMENTAL PARAMETERS: doa10∆
Answer with a bare number; do not write a unit.

> print(dat)
             sequence.record  observed.result
1  EKLITSKLLVPQKNVKI [PRE10]             2.55
2   VHNTVAAGNASSLPPGE [SNF5]             2.82
3   FIKLQKIDIIELQKSLS [FAS1]             2.15

**Q:** Please give measured protein stability index of the following entry: NDEGVWDLVDERTKQRT [PRP8]
**A:** 3.19

**Q:** Please give measured protein stability index of the following entry: LEATWNFIEPGINQILG [CDC53]
**A:** 2.95

**Q:** Please give measured protein stability index of the following entry: AKNRILASKIKQYERLR [RRI1]
**A:** 2.48

**Q:** Please give measured protein stability index of the following entry: VLQPLLPRELPKLLDAL [SNU114]
**A:** 2.15

**Q:** Please give measured protein stability index of the following entry: RQFEVKQLQLAMHNSKA [POP1]
**A:** 1.95

**Q:** Please give measured protein stability index of the following entry: FKYLLGVTDLFRHFIGI [ISW2]
**A:** 2.17

**Q:** Please give measured protein stability index of the following entry: DWIRFVSTKTNEYRLAF [RPL22A]
**A:** 2.03

----------
- PROTOCOL SUMMARY: protein stability index of a GFP-peptide fusion (yeast GPS) (PSI 1-4); higher = more stable; sorted into four equal gates, so the index is relative within each strain
- EXPERIMENTAL PARAMETERS: pdr5∆
Catalogue of sequences with associated protein stability index
Answer with a bare number; do not write a unit.

> print(dat)
                       sequence.record  observed.result
 1           GAHLGRFVIWTEAAFTK [RPL4A]             3.04
 2            GVPDDKWEQTYKKPTGG [FAS1]             3.29
 3            NQIADLSGKFSTIPTRE [ROX3]             2.96
 4            SKLSEHLNHYILLRYHH [YCG1]             1.73
 5            KMENFEFLPLSLHILMI [SRB8]              2.8
 6            IGQFLEPIDQNTGIVSS [RPT3]             2.82
 7   SEGEQKSAEGNNIDQSL [YAR002W/NUP60]             2.94
 8   RKYSFNYSSLPSPYKTT [YAR002W/NUP60]              2.8
 9  SAFKFIHTQLSEIKQQI [YJL039C/NUP192]             2.62
10  YSYTTIVLSDQTQEFFL [YJL039C/NUP192]             2.92

**Q:** Please give measured protein stability index of the following entry: KNEPDYSKAKYPDLQPF [CDC53]
**A:** 2.58

**Q:** Please give measured protein stability index of the following entry: KRIKPNTEITQKSSKEN [ECM29]
**A:** 2.9

**Q:** Please give measured protein stability index of the following entry: FSKAIEWDMLNVEEEQI [BRR2]
**A:** 3.03

**Q:** Please give measured protein stability index of the following entry: ENFSNGISLVMEIVANA [MED1]
**A:** 2.53

**Q:** Please give measured protein stability index of the following entry: RGRSVMKESVVEINSSE [ESC2]
**A:** 2.83

**Q:** Please give measured protein stability index of the following entry: SRPGQSGRCDGYILEGE [RPS8A]
**A:** 3.49

**Q:** Please give measured protein stability index of the following entry: NSPSKGNSERPSAVAGF [YIL149C/MLP2]
**A:** 3.45

**Q:** Please give measured protein stability index of the following entry: TVLADEFIAHRLGLIPL [RPB3]
**A:** 2.16

**Q:** Please give measured protein stability index of the following entry: RDDALVVETITSLLNKV [RRP42]
**A:** 2.83

**Q:** Please give measured protein stability index of the following entry: QNNKPSFVFGQAAAKPS [YLR335W/NUP2]
**A:** 2.12

**Q:** Please give measured protein stability index of the following entry: DFDLFKEVLPDLQNLNL [YJL039C/NUP192]
**A:** 3.17

**Q:** Please give measured protein stability index of the following entry: TIEHAADITDGNNTELT [YCG1]
**A:** 3.46

**Q:** Please give measured protein stability index of the following entry: VFVDGEANWPLPVNIRR [RPO21]
**A:** 3.06

**Q:** Please give measured protein stability index of the following entry: FIESIVVDFKNKENDNV [SNF12]
**A:** 3.04

**Q:** Please give measured protein stability index of the following entry: SKPESSVLQLIVSEDHI [MED1]
**A:** 2.17

**Q:** Please give measured protein stability index of the following entry: PMHSIMPNSSLQPFYSQ [DSN1]
**A:** 2.65

**Q:** Please give measured protein stability index of the following entry: SLKNDLPQFRSSIQESL [ECM29]
**A:** 2.92

**Q:** Please give measured protein stability index of the following entry: LNVSNTKENGDFTLPED [PRP8]
**A:** 3.14

----------
Catalogue of sequences with associated protein stability index
- PROTOCOL SUMMARY: protein stability index of a GFP-peptide fusion (yeast GPS) (PSI 1-4); higher = more stable; sorted into four equal gates, so the index is relative within each strain
- EXPERIMENTAL PARAMETERS: doa10∆
Answer with a bare number; do not write a unit.

Field: example entries. Status: answers known.
> print(dat)
                      sequence.record  observed.result
1            STGPTGAVSLNPSITRL [RRP4]             2.92
2           AEKLGSKKAEKTGTKPA [RPL4A]             3.14
3            CTQMTDEGLLNMVSLRG [GRR1]             2.78
4  KSKERSSQFVRLASEPG [YMR129W/POM152]             2.65
5            LIKKPLTVFYAIKKFKT [SSN3]             1.51

**Q:** Please give measured protein stability index of the following entry: VDEELGPSIYKTDPAGY [SCL1]
**A:** 3.12

**Q:** Please give measured protein stability index of the following entry: MVEGDSYVETLDSMIEL [MED1]
**A:** 3.25

**Q:** Please give measured protein stability index of the following entry: NECQRLQNIVMDCTKEE [YIL149C/MLP2]
**A:** 2.61

**Q:** Please give measured protein stability index of the following entry: LSRPYKALKTNINFASG [CDC53]
**A:** 2.4

**Q:** Please give measured protein stability index of the following entry: AVYFADTSGLKISNSEF [SIN4]
**A:** 2.96

**Q:** Please give measured protein stability index of the following entry: CLNCEKSKLFEWKSEFV [SNM1]
**A:** 2.61

**Q:** Please give measured protein stability index of the following entry: SRILKAQSRNVEIEKRI [YGR119C/NUP57]
**A:** 3.39

**Q:** Please give measured protein stability index of the following entry: DELDQEILNLSTQELQT [RPT5]
**A:** 3.21

**Q:** Please give measured protein stability index of the following entry: DYITEAVFKIVLQPLLP [SNU114]
**A:** 1.44

**Q:** Please give measured protein stability index of the following entry: DVKKPFSFGTSQPNNTP [YLR335W/NUP2]
**A:** 2.61

**Q:** Please give measured protein stability index of the following entry: LLAREVLRLRGALVDRT [RPS0A]
**A:** 2.17

**Q:** Please give measured protein stability index of the following entry: LYDLRASYAKIEIKISD [SNU114]
**A:** 2.34

**Q:** Please give measured protein stability index of the following entry: VDFDGLDIKRVGSENVE [SNF12]
**A:** 3.3

**Q:** Please give measured protein stability index of the following entry: IGLRQFQQIQYENKQLY [POP1]
**A:** 2.84

**Q:** Please give measured protein stability index of the following entry: NEDDLTVKLTEIVWTSS [RPO31]
**A:** 2.89

**Q:** Please give measured protein stability index of the following entry: KEQENITIQDLLFPKST [DPB4]
**A:** 3.05

**Q:** Please give measured protein stability index of the following entry: FLSKPSKALYPDYYMII [SNF2]
**A:** 2.31

**Q:** Please give measured protein stability index of the following entry: NLKYLDNSNVMTVKLES [RGR1]
**A:** 2.23

**Q:** Please give measured protein stability index of the following entry: NERLEINQEKPVKLDEN [SIR4]
**A:** 3.19

**Q:** Please give measured protein stability index of the following entry: GEKIDSNKPIFLFAPEL [SWI1]
**A:** 2.62

The measured values listed here are drawn from the supplement of paper PMC9732359.
